- measurementProtocol: NCI Yeast Anticancer Drug Screen. Data for the mlh1 rad18 strain (AID 175)
- measurementConditions: S. cerevisiae mlh1 rad18 strain growth inhibition; at 50.0 µM; hits give high values
The panel holds about 79,000 compounds, 15% with a hit somewhere; the sample as a whole holds those more often.
recordedEndpoint: growth inhibition (%)
Answer with a number only, understood to be in %.

Sample Nc1ccc(Cc2ccc(N)c(Br)c2)cc1Br — what was its growth inhibition?
32.4

Another compound: CS(=O)(=O)Oc1c(Cl)cc(Cl)c2cccnc12
11.2

Another compound: CC1=C(C(=O)NC2CCCCC2)CC(C(=O)NC2CCCCC2)=C(C)N1
-61.9

Another compound: CC1CCC(=O)NCCCCC(=O)N1 (configuration not stated)
26.6

Another compound: Oc1cc2ccc3c(c2cc1O)CCc1cn[nH]c1-3
15.5

Another compound: O=C1NC(=O)C(CCI)N1 (configuration not stated)
-12.7

Another compound: COC(=O)C1(C)CCCC2(C)c3cc(OC)ccc3C(=O)C(Cl)C12 (configuration not stated)
5.7

---

- measurementProtocol: NCI Yeast Anticancer Drug Screen. Data for the sgs1 mgt1 strain (AID 161);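 further: 0% = growth of cultures given vehicle only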
- measurementConditions: S. cerevisiae sgs1 mgt1 strain, at 50.0 µM, hits give high values
Compounds without any hit were thinned out: in the full panel of roughly 79,000, 15% have a hit. Calls of active or inactive are those of the source. Rule as the data show it: active = growth inhibition above about 70%; inactive = the rest.
recordedEndpoint: growth inhibition

Sample COC(=O)C1(C(C)C(=O)c2ccc(Cl)cc2)NC(=S)NC(=O)C1C#N (stereo unspecified) — what was its growth inhibition?
-24.9% (inactive)

Another compound: O=C(CNC(=O)C(CCC(=O)OCc1ccccc1)NC(=O)OCc1ccccc1)NCC(=O)Oc1ccc([N+](=O)[O-])cc1 (stereo unspecified)
10.3% (inactive)

Another compound: O=C1CC2COc3ccc(OCCN4CCCC4)cc3C2=NN1c1ccccc1 (stereo unspecified)
-22.7% (inactive)

Another compound: Cn1cnc2ncnc(NCc3ccc(Cl)c(Cl)c3)c21
-7.35% (inactive)

Another compound: CC(=O)NC1=CC(=O)c2cc(C)cc(O)c2C1=O
20.1% (inactive)

Another compound: NNc1ccc(S(=O)(=O)O)cc1Cl
3.05% (inactive)

Another compound: Cc1nc(C)c(Cc2ccccc2)o1
18.1% (inactive)

Another compound: Clc1ccc(-c2nnc(-c3ccc4ccccc4c3)o2)cc1Cl
7.15% (inactive)

Another compound: O=C(Oc1ccc(-c2ccccc2)cc1)c1cccc([N+](=O)[O-])c1
7.1% (inactive)

Another compound: C[n+]1ccc(/C(C#N)=N/O)cc1
-20.6% (inactive)

Another compound: N#CCCN(CCC#N)CCN(CCN(CCC#N)CCC#N)CCN(CCC#N)CCC#N
-6.4% (inactive)

---

- measurementProtocol: NCI Yeast Anticancer Drug Screen. Data for the mec2-1 strain (AID 157)
- measurementConditions: S. cerevisiae mec2-1 strain, at 50.0 µM, hits give high values
Compounds without any hit were thinned out: in the full panel of roughly 79,000, 15% have a hit.
Consider the following compounds; for each one, report its growth inhibition.
Answer with a number only, understood to be in %.

Sample CCCN1C(=O)CN(S(=O)(=O)c2ccc(Cl)cc2)C1=O — what was its growth inhibition?
4.05

Another compound: CCOC(NC(C)=O)C(O)c1ccc(Cl)cc1 (stereo not given)
11.2

Another compound: Cc1ccccc1OCC1COCN(C(C)(C)CO)CO1 (stereo not given)
-4.5

Another compound: N#Cc1ccc(OCCCOc2ccc(C#N)cc2)cc1
12.2

Another compound: COC(=O)C(=O)C(C(=O)C(=O)Nc1ccccc1[N+](=O)[O-])c1nc2ccc([N+](=O)[O-])cc2[nH]c1=O (stereo not given)
15.2

Another compound: C=C1CC(CC(=O)C(C)CC2CC(=C)C(=O)O2)OC1=O (stereo not given)
-30.9

Another compound: Brc1ccccc1/C=N\N=C\c1ccccc1Br
2.5

Another compound: C[Si](C)(C)COC(N)=O
10.8

Another compound: S=C(N1CCN(c2ccc(Cl)c(Cl)c2)CC1)N1CCN(c2ccc(Cl)c(Cl)c2)CC1
22.2

Another compound: COC(=O)c1cc(C)nc(Cl)c1C(=O)O
4.95

Another compound: CCO/C(O)=c1/s/c(=C(\C#N)c2nc3ccccc3[nH]2)n(-c2ccccc2)c1=N
3.4

Another compound: C(CCc1nnc2c(n1)CCCC2)Cc1nnc2c(n1)CCCC2
-17.9

Another compound: [O-][n+]1cccc(CO)c1
-47.9

Another compound: O=C1CCC(C2(O)c3ccccc3-c3ccccc32)C(=O)N1 (stereo not given)
-16.1

Another compound: CC1(C)C/C(=C\c2ccc([N+](=O)[O-])cc2)C(=O)c2ccccc21
71.7

Another compound: CCOC(=O)/N=[N+](\[O-])c1ccccc1
46.9

Another compound: O=C1NNC=Nc2ccc(cc2)S(=O)(=O)c2ccc(cc2)N=CNNC1=O
-1.9

Another compound: C[N+](C)(C)/N=C1\CC2CCC1C2 (stereo not given)
-4.5

Another compound: CC12CCCCC1C(C(C)(C)OC(=O)c1ccc([N+](=O)[O-])cc1)CC2 (stereo not given)
8.2

Another compound: CCOC(=O)c1cc2c(nc1N)C(=O)CCCC2
-59.1

Another compound: Cc1cc2cc3oc(C)cc3cc2o1
-6.45

Another compound: [N-]=[N+]=Nc1c(Cc2ccccc2)c(Cl)nc2ccccc12
57.9

Another compound: CN(C)c1cc2c(cc1N(C)C)-c1ccccc1C2
6.5

Another compound: O=C(NCc1ccco1)Nc1ccc(Cl)cc1
-0.8

Another compound: CNC(=O)NC1C(CO)OC2OC(C)(C)OC21 (stereo not given)
5.25

---

- measurementProtocol: NCI Yeast Anticancer Drug Screen. Data for the mec2-1 strain (AID 157)
- measurementConditions: S. cerevisiae mec2-1 strain, at 50.0 µM, hits give high values
The panel holds about 79,000 compounds, 15% with a hit somewhere; the sample as a whole holds those more often.
Consider the following molecules; for each one, report its growth inhibition.
Answer with a number only, understood to be in %.

Sample CC(=O)C(=Cc1c[nH]c2ccccc12)C(C)=O — what was its growth inhibition?
13.7

Another molecule: CCC(=O)c1c(NOC2OCC(OC(C)=O)C(OC(C)=O)C2OC(C)=O)nc(OC)n(C)c1=O (stereo not given)
-0.65

Another molecule: COc1cc(NS(=O)(=O)c2ccc(N)cc2)c2ncccc2c1
22.8

Another molecule: Cc1cc2nc3[nH]c(=O)c4c(n3c2cc1C)CCC4
-6.8

Another molecule: Cc1nc2ccccc2n1C(=O)c1c(F)c(F)c(F)c(F)c1F
-17.6

Another molecule: c1ccc(C(=NN(CCCCN(N=C(c2ccccc2)c2ccccc2)c2ccccc2)c2ccccc2)c2ccccc2)cc1
21.4

Another molecule: c1ccc2c(c1)C1CC3N=NC1C23 (stereo not given)
-1.35

Another molecule: Cn1c(=O)c2c(nc(NCCOC(=S)S)n2C)n(C)c1=O
1.8

Another molecule: CSC1(C)C(=O)Nc2cc(C(F)(F)F)ccc21 (stereo not given)
1.5

Another molecule: CCCCCCCCCCC(CCCCCCCCCC)=NN=C(CCCCCCCCCC)CCCCCCCCCC
9.45

Another molecule: COc1ccc2nc3cc(Cl)ccc3c(NN3CCN(CCO)CC3)c2c1
-7.9

Another molecule: Cc1ccc(I)c(C)c1
-10

Another molecule: NC1=C(O)c2cccc3cccc(c23)C1=O
12.2

Another molecule: COC(=O)c1cc(=O)[nH]c2c1c(=O)[nH]c(=O)n2C
9

Another molecule: Cc1cc(S(=O)(=O)Nc2n[nH]c(Nc3ccc(Cl)cc3)n2)c(S)cc1Cl
-14.9

Another molecule: Brc1ccc2noc(-c3ccccc3)c2c1
2.25

Another molecule: CCOC(=O)c1c(C)nc(C)c(C(=O)OCC)c1-c1ccnc2ccccc12
-15.9

Another molecule: O=C(N/N=C/c1ccc(Cl)cc1)C(c1ccccc1)N1CCCCC1 (stereo not given)
-2.65

Another molecule: O=C1CCSSCCC(=O)NCCCN1
-5.3

Another molecule: Cc1cc2c(nn1)CCc1c-2no[n+]1[O-]
-32.1

Another molecule: O=C1NC(=S)S/C1=C\c1c(Cl)cccc1Cl
19

Another molecule: Cc1cc2[nH]c3c(C#N)c(O)c(C(C)C)c(=O)n3c2cc1C
7.8

Another molecule: Cc1cc2c(=O)c3ccccc3oc2c(C(=O)O)c1C
-6.25

Another molecule: Cc1cc(Cl)ccc1C(=O)O
9.7

Another molecule: N=C(N)SCC(O)c1ccccc1 (stereo not given)
-11.4

---

- measurementProtocol: NCI Yeast Anticancer Drug Screen. Data for the bub3 strain (AID 167)
- measurementConditions: S. cerevisiae bub3 mutant strain, at 50.0 µM, hits give high values
The panel holds about 79,000 compounds, 15% with a hit somewhere; the sample as a whole holds those more often.
Consider the following compounds; for each one, report its growth inhibition.
Answer with a number only, understood to be in %.

Sample CCC(C)OC(=S)S.[Ag] (stereo not given) — what was its growth inhibition?
-1.85

Another compound: ClCCCCSC1CCCCC1
0.6

Another compound: Cc1c([N+](=O)[O-])cc(C(C)(C)C)c(OC(=O)C(Cl)(Cl)Cl)c1[N+](=O)[O-]
88.9

Another compound: COc1ccc(OC)c(NC(=O)C(=O)C(C(=O)c2ccccc2F)C2OC(=O)c3ccccc32)c1 (stereo not given)
-60.2

Another compound: CN(C)CC1CCc2ccccc2C1=O (stereo not given)
-52.1

Another compound: OCCSCc1cc2c(cc1Br)OCO2
12.4

Another compound: O=C=Nc1ccc(Cc2ccc(N=C=O)cc2)cc1
-23.9

Another compound: NC(=O)N/N=C(\c1ccccc1)C1CCCCc2ccccc21 (stereo not given)
43

Another compound: COCCCNC(=O)C1C(=O)N(CCCOC)C(=O)/C1=N\N (stereo not given)
-2.25

Another compound: Cc1cc(=O)[nH]c2[nH][nH]c(=O)c12
2.85

Another compound: COc1ccc(C2(O)c3ccccc3C(=O)c3ccc(OC)cc32)cc1 (stereo not given)
-11.1

Another compound: CCN(CCOC(=O)Nc1cccc(C(C)=O)c1)c1ccccc1
92.1

Another compound: COc1ccc(-c2coc3c4c(c5c(c3c2=O)OC(C)(C)CC5)OC(C)(C)C=C4)cc1OC
18.1

Another compound: CC(=O)Nc1ccc2c(c1)Cc1cc(Cl)c(Cl)cc1-2
-3.7

Another compound: Clc1ccc(-c2nnc(-c3ccc4ccccc4c3)o2)cc1Cl
-14.9

Another compound: Cn1c(=S)c2[nH]c(SCCCc3ccccc3)nc2n(C)c1=O
-25.9

Another compound: CNc1nc(SCc2ccccc2)c2ncn(C3OC(CO)C(O)C3O)c2n1 (stereo not given)
4.95

Another compound: CCC1(C(Cl)(Cl)Cl)C=CC(=O)C=C1
4.7

Another compound: CC(CCc1ccccc1)NC(=O)c1ccccc1 (stereo not given)
10.7

Another compound: O=C1OC[C@H]2[C@@H]1[C@H]1O[C@@H]2C2=C(CCC2)C1=O
-30.9

Another compound: COc1cc(C=O)c(-c2c(C=O)ccc3c2OCO3)c(OC)c1OC
26

Another compound: C#CC[N+](C)(CC#C)CC#C
9.7

Another compound: COc1cc2c(cc1OC)C1CCc3ccccc3CN1CC2 (stereo not given)
-15.8

Another compound: O=C(Cc1cccc2c(=O)cc(-c3ccccc3)oc12)OCCN1CCOCC1
26.9

Another compound: c1ccc2c(-c3ccncc3)c3ccccc3cc2c1
6.5

All values here come from PubChem BioAssay (NCI).
